Assay: Permeability ratio, ratio of permeability from apical to basolateral side over basolateral to apical side in human Caco2 cells at 50 uM over 2 hrs by isocratic reverse phase HPLC method
Assay type: ADME, cell-based
Conditions: caco-2, 2 h
Listing of entries alongside the reported Ratio.
No unit in the answer, only the number.

Which Ratio value is on record for `O=C1/C(=C/c2cccc(O)c2)CNC/C1=C\c1cccc(O)c1` ?
2.64

Given the entry `COc1ccc(/C=C2\CNC/C(=C\c3ccc(OC)c(OC)c3)C2=O)cc1OC` , report its measured Ratio.
3.5

Could you share which Ratio value was measured for `CCOP(=O)(OCC)N1C/C(=C\c2ccc(OC)c(OC)c2)C(=O)/C(=C/c2ccc(OC)c(OC)c2)C1` ?
6.7

Recorded Ratio for `CCOC(=O)c1ccc(/C=C2\CNC/C(=C\c3ccc(C(=O)OCC)cc3)C2=O)cc1` , please?
2.85

Please give the measured Ratio for this compound: `COc1ccccc1/C=C1\CNC/C(=C\c2ccccc2OC)C1=O`
3.13

Others:
I would be grateful if you could share the reported Ratio for `O=C(/C=C/c1ccccc1)c1ccccc1` .
2.75

Report Ratio for `O=C1/C(=C/c2ccccc2F)CNC/C1=C\c1ccccc1F` please.
5.88

Requested field: Ratio. Item: `CCOP(=O)(OCC)N1C/C(=C\c2cc(OC)c(OC)c(OC)c2)C(=O)/C(=C/c2cc(OC)c(OC)c(OC)c2)C1`
3.23

Item under review: `COc1cccc(/C=C2\CNC/C(=C\c3cccc(OC)c3OC)C2=O)c1OC` . Reported Ratio?
3.24

Look at this compound and give its reported Ratio. `CN(C)c1ccc(/C=C/C(=O)/C=C/c2ccc(N(C)C)cc2)cc1`
1.2

----------
Test: Permeability ratio, ratio of permeability from basolateral to apical side over apical to basolateral side in MDCK cells at 50 uM over 2 hrs by isocratic reverse phase HPLC method
Format: ADME, cell-based, Canis lupus familiaris
Conditions: dog, MDCK
Measured Property: efflux ratio at 2 h, 50 µM
Please state the value as a number alone, without comment.

Here are 8 molecules together with their reported answers.
Field request: efflux ratio at 2 h, 50 µM | item: `O=C1/C(=C/c2cccc(O)c2)CNC/C1=C\c1cccc(O)c1`
0.3

Any idea what efflux ratio at 2 h, 50 µM was measured for `COc1ccccc1/C=C1\CNC/C(=C\c2ccccc2OC)C1=O` ?
0.48

Form field: reported efflux ratio at 2 h, 50 µM of `CCOP(=O)(OCC)N1C/C(=C\c2cc(OC)c(OC)c(OC)c2)C(=O)/C(=C/c2cc(OC)c(OC)c(OC)c2)C1`
0.48

Field request: efflux ratio at 2 h, 50 µM | item: `CCOC(=O)c1ccc(/C=C2\CNC/C(=C\c3ccc(C(=O)OCC)cc3)C2=O)cc1`
0.37

Look at this molecule and give its reported efflux ratio at 2 h, 50 µM. `COc1ccc(/C=C2\CNC/C(=C\c3ccc(OC)c(OC)c3)C2=O)cc1OC`
0.39

// lookup efflux ratio at 2 h, 50 µM for `COc1cccc(/C=C2\CNC/C(=C\c3cccc(OC)c3OC)C2=O)c1OC`
0.43

Find the recorded efflux ratio at 2 h, 50 µM belonging to `CCOP(=O)(OCC)N1C/C(=C\c2ccc(OC)c(OC)c2)C(=O)/C(=C/c2ccc(OC)c(OC)c2)C1` and report it.
0.44

Can you look up the measured efflux ratio at 2 h, 50 µM of O=C(/C=C/c1ccccc1)c1ccccc1 [CHALCONE] for me?
0.33

Now for another entry.
# get_value(readout='efflux ratio at 2 h, 50 µM', item= `O=C1/C(=C/c2ccccc2F)CNC/C1=C\c1ccccc1F` )
0.1

----------
System: MDCK
Assay: Permeability ratio, ratio of permeability from apical to basolateral side over basolateral to apical side in MDCK cells at 50 uM over 2 hrs by isocratic reverse phase HPLC method
Type: ADME, cell-based, Canis lupus familiaris
Settings: dog
Measured Property: Ratio
The reply should be a number, written without any unit.

Use these answered entries as a reference point.
Quick check: Ratio of `CCOP(=O)(OCC)N1C/C(=C\c2cc(OC)c(OC)c(OC)c2)C(=O)/C(=C/c2cc(OC)c(OC)c(OC)c2)C1` ?
2.08

Give the measured Ratio of `COc1ccccc1/C=C1\CNC/C(=C\c2ccccc2OC)C1=O` .
2.06

// returns reported Ratio for input O=C(/C=C/c1ccccc1)c1ccccc1 [CHALCONE]
3.05

Continuing:
# Ratio lookup, item `CN(C)c1ccc(/C=C/C(=O)/C=C/c2ccc(N(C)C)cc2)cc1`
1.24

Record request: Ratio value, item `O=C1/C(=C/c2cccc(O)c2)CNC/C1=C\c1cccc(O)c1`
3.35

----------
Experiment: Ratio of apparent permeability from basolateral to apical side in MDCK cells to apparent permeability from basolateral to apical side in human Caco2 cells
Assay type: ADME, cell-based
Details: caco-2
Each record here notes measured Ratio.
Write the value as a bare number.

Which Ratio reading was recorded for the compound `O=C1/C(=C/c2cccc(O)c2)CNC/C1=C\c1cccc(O)c1` ?
1.12

Report Ratio for `CCOC(=O)c1ccc(/C=C2\CNC/C(=C\c3ccc(C(=O)OCC)cc3)C2=O)cc1` please.
1

Please give the measured Ratio for this compound: `COc1ccc(/C=C2\CNC/C(=C\c3ccc(OC)c(OC)c3)C2=O)cc1OC`
2.11

Which Ratio value is on record for O=C(/C=C/c1ccccc1)c1ccccc1 [CHALCONE] ?
1.2

Query: Ratio; subject: `CCOP(=O)(OCC)N1C/C(=C\c2ccc(OC)c(OC)c2)C(=O)/C(=C/c2ccc(OC)c(OC)c2)C1`
3.39

Continuing:
For `O=C1/C(=C/c2ccccc2F)CNC/C1=C\c1ccccc1F` , what is its reported Ratio?
0.6

Can you share its Ratio? I mean this compound: `COc1ccccc1/C=C1\CNC/C(=C\c2ccccc2OC)C1=O`
1.34

Param item = `CN(C)c1ccc(/C=C/C(=O)/C=C/c2ccc(N(C)C)cc2)cc1` ; retrieve measured Ratio.
2.27

Given `COc1cccc(/C=C2\CNC/C(=C\c3cccc(OC)c3OC)C2=O)c1OC` , state its recorded Ratio.
0.87

Consider the compound `CCOP(=O)(OCC)N1C/C(=C\c2cc(OC)c(OC)c(OC)c2)C(=O)/C(=C/c2cc(OC)c(OC)c(OC)c2)C1` and give its measured Ratio.
5.73

----------
Assay: Apparent permeability from apical to basolateral side in human Caco2 cells at 50 uM over 2 hrs by isocratic reverse phase HPLC method
Assay type: ADME, cell-based
Details: Caco-2
Documented Papp A→B at 2 h, 50 µM across a set of compounds
Only the number, expressed in ×10⁻⁶ cm/s, is required.

Which value of Papp A→B at 2 h, 50 µM has been reported for `CCOP(=O)(OCC)N1C/C(=C\c2ccc(OC)c(OC)c2)C(=O)/C(=C/c2ccc(OC)c(OC)c2)C1` in the records?
54.7

Next:
Can you share its Papp A→B at 2 h, 50 µM? I mean this compound: `O=C1/C(=C/c2cccc(O)c2)CNC/C1=C\c1cccc(O)c1`
15.4

Which Papp A→B at 2 h, 50 µM is listed for `COc1cccc(/C=C2\CNC/C(=C\c3cccc(OC)c3OC)C2=O)c1OC` ?
23.4

So what's the measured Papp A→B at 2 h, 50 µM for this one? `COc1ccc(/C=C2\CNC/C(=C\c3ccc(OC)c(OC)c3)C2=O)cc1OC`
14.4

----------
Assay: Efflux ratio, ratio of permeability from basolateral to apical side over apical to basolateral side in human Caco2 cells at 50 uM over 2 hrs by isocratic reverse phase HPLC method
Format: ADME, cell-based
Conditions: Caco-2
# Lookup of reported efflux ratio at 2 h, 50 µM keyed by entry
Give only the figure.

Fill in the blank: the reported efflux ratio at 2 h, 50 µM of `O=C1/C(=C/c2ccccc2F)CNC/C1=C\c1ccccc1F` is ____.
0.17

Fill in the blank: the reported efflux ratio at 2 h, 50 µM of `O=C1/C(=C/c2cccc(O)c2)CNC/C1=C\c1cccc(O)c1` is ____.
0.38

Looking for the measured efflux ratio at 2 h, 50 µM of `O=C(/C=C/c1ccccc1)c1ccccc1` , can you help?
0.36

So what does the record say about efflux ratio at 2 h, 50 µM for `COc1ccccc1/C=C1\CNC/C(=C\c2ccccc2OC)C1=O` ?
0.32

Others:
For the compound `COc1cccc(/C=C2\CNC/C(=C\c3cccc(OC)c3OC)C2=O)c1OC` , what efflux ratio at 2 h, 50 µM is on record?
0.31

Query: efflux ratio at 2 h, 50 µM; subject: `CN(C)c1ccc(/C=C/C(=O)/C=C/c2ccc(N(C)C)cc2)cc1`
0.83

Dear colleague, I am looking for the recorded efflux ratio at 2 h, 50 µM of the following compound: `CCOC(=O)c1ccc(/C=C2\CNC/C(=C\c3ccc(C(=O)OCC)cc3)C2=O)cc1`
0.35

Can you share its efflux ratio at 2 h, 50 µM? I mean this compound: `COc1ccc(/C=C2\CNC/C(=C\c3ccc(OC)c(OC)c3)C2=O)cc1OC`
0.29

Quick one: efflux ratio at 2 h, 50 µM for `CCOP(=O)(OCC)N1C/C(=C\c2ccc(OC)c(OC)c2)C(=O)/C(=C/c2ccc(OC)c(OC)c2)C1` ?
0.15

# efflux ratio at 2 h, 50 µM lookup, item `CCOP(=O)(OCC)N1C/C(=C\c2cc(OC)c(OC)c(OC)c2)C(=O)/C(=C/c2cc(OC)c(OC)c(OC)c2)C1`
0.31
